Measured TGI values are reported for all entries that follow.
Test system: RXF 393 renal
assay_name: NCI tumour cell line growth inhibition, 48 h
quantity: TGI

# compound, result
measured = [
    ("CCN1C(=O)N(CC)C2C1NN=c1s/c(=C\\c3cnc(C)n3C)c(=O)n12 (stereo not given)", "5.38 µM"),
    ("Cc1ccc(C)c(C(=N)c2ccccc2Cc2ccccc2)c1", "34.9 µM"),
    ("COc1cc(C2S/C(=C/c3ccccc3)C(=O)N2c2ccccn2)cc(OC)c1OC (stereo not given)", "22.8 µM"),
    ("Nc1ccc2c(c1)S(=O)(=O)c1cc(N)ccc1-2", "> 100 µM"),
    ("C(=NCCN=Cc1cccc2ccccc12)c1cccc2ccccc12", "> 100 µM"),
    ("CCc1ncc(C(C)(O)c2ccccc2)n1Cc1ccccc1 (stereo not given)", "> 100 µM"),
    ("CCOC(=O)C1C(=O)c2cccc(OC)c2C2COC(=O)N12 (stereo not given)", "> 100 µM"),
    ("CC(C)CC1NC(=O)C(C(C)C)NC(=O)CC(C)COC(=O)C(CC(C)C)N(C)C(=O)C(C(C)C)NC(=O)C(C(C)C)OC1=O (stereo not given)", "35.2 µM"),
    ("OCC(O)C(O)C(C=NNc1ncnc2ccc(Br)cc12)=NNc1ncnc2ccc(Br)cc12 (stereo not given)", "72.4 µM"),
    ("CSc1nc(-c2cccc(NC(=O)CCl)c2)c(C#N)c(=O)n1C", "3.03 µM"),
]

====

System: HCC-2998 colon
assay_name: NCI tumour cell line growth inhibition, 48 h
Measured TGI values are reported for all entries that follow.
quantity: TGI

# molecule, result
rows = [
    ("CCC(=O)Oc1ccc(/C=N/NC(N)=S)nc1", "> 100 µM"),
    ("Cc1cccc2c(=O)c3c(O)cc4c(c3n(C)c12)C=CC(C)(C)O4", "> 100 µM"),
    ("Nc1ccc2c(c1)S(=O)(=O)c1cc(N)ccc1-2", "> 100 µM"),
    ("Cc1cc(C)nc(NS(=O)(=O)c2ccc(NC(=O)c3ccc4nc5ccccc5c(Nc5ccc(S(=O)(=O)Nc6nc(C)cc(C)n6)cc5)c4c3)cc2)n1", "> 100 µM"),
    ("CCCNC(=O)c1cc(NC(=O)c2cc(NC(=O)CCS(=O)(=O)OC)cn2C)cn1C", "> 100 µM"),
    ("COC(=O)CCc1c(/C=C2\\N=C(c3ccc[nH]3)C=C2OC)[nH]c(C)c1C(=O)OCc1ccccc1", "6.04 µM"),
    ("O=C1OC(=O)C2C1C1C(c3ccccc3)=C(c3ccccc3)C2(O)C2C(=O)OC(=O)C12 (stereo not drawn)", "> 100 µM"),
    ("C=C1C(OCCO)OC2O[C@]3(C)CCC4[C@H](C)CCC1C24OO3 (stereo partly drawn)", "> 100 µM"),
    ("COc1ccc2oc3c(ccc[n+]3C)c(=O)c2c1", "> 100 µM"),
    ("COC(=O)C(C(=O)C(=O)Nc1ccc(N)cc1[N+](=O)[O-])c1nc2ccc(Cl)cc2[nH]c1=O (stereo not drawn)", "> 100 µM"),
    ("N#CC12CC3(CCC1CCC1(C2)OCCO1)OCCO3 (stereo not drawn)", "> 100 µM"),
    ("Cc1ccc(SSCCCCS(=O)O)cc1", "66.3 µM"),
    ("C=C(C)COC(=O)COCC(=O)OCC(=C)C", "> 100 µM"),
]
